- Tested on: Mycobacterium tuberculosis
- ASSAY_COMMENT: Growth inhibition of Mycobacterium tuberculosis H37Ra ATCC 25177 at dormant stage at 100 ug/ml measured after 12 days by XTT dye based two fold dilution method relative to control
- Assay type: functional
- EXPERIMENTAL_CONTEXT: H37Ra ATCC 25177, 288 h, read-out: GI
ASSAY_READOUT: inhibition of growth at 100 µg/mL (%)
Numbers only, in %.

Please review the following examples before continuing.
SMILES_NOTATION	READOUT_NUMBER
COc1ccc2nc(Cl)c(/C=C3\SC(=S)NC3=O)cc2c1	91.6
O=C(O)CN1C(=O)/C(=C/c2cc3cc(F)ccc3nc2Cl)SC1=S	119
COc1ccc2cc(/C=C3\SC(=S)NC3=O)c(Cl)nc2c1	85.2
Cc1cccc2cc(/C=C3\SC(=S)NC3=O)c(Cl)nc12	104
Cc1cccc2cc(/C=C3\SC(=S)N(CC(=O)O)C3=O)c(Cl)nc12	100

Quick request: inhibition of growth at 100 µg/mL for each listed item, please.
1. CCOc1ccc2nc(Cl)c(/C=C3\SC(=S)NC3=O)cc2c1
2. O=C1NC(=S)S/C1=C\c1cc2cc(Cl)ccc2nc1Cl

1. 105
2. 85.4

Item O=C1NC(=S)S/C1=C\c1cc2cc(F)ccc2nc1Cl has what recorded inhibition of growth at 100 µg/mL?
97.3

* * *

- ASSAY_COMMENT: Selectivity index, ratio of GI50 for human HeLa cells to MIC for Mycobacterium tuberculosis H37Ra ATCC 25177 at dormant stage
- Format: toxicity, cell-based
- EXPERIMENTAL_CONTEXT: read-out: Selectivity Index
Task for the reader: assign each of the following molecules its reported selectivity ratio.
Answers are plain numbers.

Worked cases, selectivity ratio given:
MOLECULE	selectivity ratio
CCOc1ccc2nc(Cl)c(/C=C3\SC(=S)NC3=O)cc2c1	28.6
COc1ccc2nc(Cl)c(/C=C3\SC(=S)NC3=O)cc2c1	20.8
Cc1cccc2cc(/C=C3\SC(=S)N(CC(=O)O)C3=O)c(Cl)nc12	5
O=C1NC(=S)S/C1=C\c1cc2cc(Cl)ccc2nc1Cl	15.6
CO[C@H]1/C=C/O[C@@]2(C)Oc3c(C)c(O)c4c(O)c(c(/C=N/N5CCN(C)CC5)c(O)c4c3C2=O)NC(=O)/C(C)=C\C=C\[C@H](C)[C@H](O)[C@@H](C)[C@@H](O)[C@@H](C)[C@H](OC(C)=O)[C@@H]1C [RIFAMPIN]	2500

Give measured selectivity ratio for every item shown.
1. Cc1cccc2cc(/C=C3\SC(=S)NC3=O)c(Cl)nc12
2. O=C1NC(=S)S/C1=C\c1cc2cc(F)ccc2nc1Cl

1: 7.8; 2: 5.6

* * *

- Tested on: Bacillus subtilis
- ASSAY_COMMENT: Antibacterial activity against Bacillus subtilis NCIM 2079 measured after 12 hrs
- Type: functional
- EXPERIMENTAL_CONTEXT: NCIM 2079, 12 h
ASSAY_READOUT: MIC

SMILES_NOTATION	TARGET_OR_TEST_SYSTEM	ASSAY_READOUT	RESULT
O=C(O)CN1C(=O)/C(=C/c2cc3cc(Cl)ccc3nc2Cl)SC1=S	Bacillus subtilis	MIC	> 30 µg/mL

Please report MIC for every entry that follows.
1. CCOc1ccc2nc(Cl)c(/C=C3\SC(=S)N(CC(=O)O)C3=O)cc2c1
2. Cc1cccc2cc(/C=C3\SC(=S)N(CC(=O)O)C3=O)c(Cl)nc12
3. Cc1cccc2cc(/C=C3\SC(=S)NC3=O)c(Cl)nc12
4. O=C(O)CN1C(=O)/C(=C/c2cc3cc(F)ccc3nc2Cl)SC1=S
5. CCOc1ccc2nc(Cl)c(/C=C3\SC(=S)NC3=O)cc2c1
6. O=C1NC(=S)S/C1=C\c1cc2cc(F)ccc2nc1Cl
7. O=C1NC(=S)S/C1=C\c1cc2cc(Cl)ccc2nc1Cl

> 30 µg/mL
> 30 µg/mL
> 30 µg/mL
> 30 µg/mL
28.4 µg/mL
> 30 µg/mL
9.33 µg/mL

Record request: MIC value, item COc1ccc2nc(Cl)c(/C=C3\SC(=S)N(CC(=O)O)C3=O)cc2c1
> 30 µg/mL
